- System: Bacillus subtilis
- Protocol notes: cleaved RNA product abundance (RNA/gDNA barcode ratio) relative to median wild-type variant (ratio to wild type); higher = more accumulation of the downstream cleavage product
- Experimental setup: experiment (reporter, strain, medium): exp 2b: truncated aprE reporter, strain BJT200; cleavage site: cggR-gapA (positions -7 to +36 mutated)
For each record, write down the corresponding cleaved RNA product abundance.
Numbers only.

Please review the entries below; each comes with its answer.
{"columns": ["Seq", "cleaved RNA product abundance"],
 "data": [
  ["ACAGACGAAGGAGCCGCAAAGAATTTATTAATGGATGAATAATCCCTCAATATAAATATCTCTCACTTATTTAAA", 0.105],
  ["ACAGACGAAGGAGCCGCAACGAATTTATTAAGGGATGAATAATCCCTCAATATAAATATCTCTCACTTATTTAAA", 0.738],
  ["ACAGACGAAGGAGCCGCAAAGAAGTTATTAAGGGAAGAATAAACCCTCAATATAAATATCTCTCACTTATTTAAA", 0.301]
]}

For each of the sequences below, note its cleaved RNA product abundance.
1. ACAGACGAAGGAGCCGCAAACAAGTTATTAAGGGATGACTAATCCCTCAATATAAATATCTCTCACTTATTTAAA
2. ACAGACGAAGGAGCCGCAAAGAAGTTATCAAGGGATGAATAAACCCTCAATATAAATATCTCTCACTTATTTAAA
3. ACAGACGAAGGAGCCGCAAAGAAGTTATTAAGGGATGAATAATCTCTCAAAATAAATATCTCTCACTTATTTAAA
4. ACAGACGAAGGAGCCGCAAAGAAGTTATTAATGGATGCATAATCCCTCAATATAAATATCTCTCACTTATTTAAA
5. ACAGACGAAGGAGCCGCAAAGATGTTATTAAGGAATGAATAATCCCTCAATATAAATATCTCTCACTTATTTAAA
6. ACAGACGAAGGAGCCGCAAAGAAGTTATTATGGGATGAATAATTCCTCAATATAAATATCTCTCACTTATTTAAA

Result:
1: 0.557; 2: 0.148; 3: 0.283; 4: 0.133; 5: 0.102; 6: 0.149

For each of the sequences below, note its cleaved RNA product abundance.
1. ACAGACGAAGGAGCCGCAAAGAAGTTATTAAGGGATGAATAATCCCTCATTAAAAATATCTCTCACTTATTTAAA
2. ACAGACGAAGGAGCCGCAAAGAAGTTATTAAGGGATGAATAATCCTTCAATTTAAATATCTCTCACTTATTTAAA
3. ACAGACGAAGGAGCCGCAAAGAAGTTATTAACGAATGAATAATCCCTCAATATAAATATCTCTCACTTATTTAAA

Result:
1. 0.116
2. 0.144
3. 0.0836

----------
- System: Bacillus subtilis
- Protocol notes: cleaved RNA product abundance (RNA/gDNA barcode ratio) relative to median wild-type variant (ratio to wild type); higher = more accumulation of the downstream cleavage product
- Experimental setup: experiment (reporter, strain, medium): exp 4a: truncated aprE reporter, strain BJT201 with 2% xylose (RNase J1 expressed); cleavage site: cggR-gapA (positions -7 to +36 mutated)
Please note: yes (1) applies when cleaved RNA product abundance is 0.4 or greater, and no (0) applies otherwise.

These solved cases illustrate the format of a correct answer.
{"columns": ["Seq", "Label value"],
 "data": [
  ["ACAGACGAAGGAGCCGCAAAGAAGTTATTAAGGGGTCAATAATCCCTCAATATAAATATCTCTCACTTATTTAAA", "yes (1)"],
  ["ACAGACGAAGGAGCCGCAAAGACGTTATTAAGGGATGAATAATCCATCAATATAAATATCTCTCACTTATTTAAA", "no (0)"],
  ["ACAGACGAAGGAGCCGCAAAGAAGTTATTAATGGATGAATAATCCCTCAATATAATTATCTCTCACTTATTTAAA", "no (0)"],
  ["ACAGACGAAGGAGCCGCAAAAAAGTTATTAAGGGATGAATAATCCCTCATTATAAATATCTCTCACTTATTTAAA", "yes (1)"],
  ["ACAGACGAAGGAGCCGCGAAGAAGTTATTAAGGGATGAATAATCCCACAATATAAATATCTCTCACTTATTTAAA", "no (0)"]
]}

Query: # check: cleaved RNA product abundance of ACAGACGAAGGAGCCGCAAAGAAGTTATTAAGGGATGAATAATCCCTAAATATAAATAACTCTCACTTATTTAAA is greater than or equal to 0.4
Result: yes (1)

Query: # check: cleaved RNA product abundance of ACAGACGAAGGAGCCGCAAAAAAGTTATTAAGGGATGAATAATCCCGCAATATAAATATCTCTCACTTATTTAAA is greater than or equal to 0.4
Result: no (0)

Query: # check: cleaved RNA product abundance of ACAGACGAAGGAGCCGCAAAGAAGTTATTAAGGGATGCACAATCCCTCAATATAAATATCTCTCACTTATTTAAA is greater than or equal to 0.4
Result: yes (1)

Query: # check: cleaved RNA product abundance of ACAGACGAAGGAGCCGCAAAGAAGTTATTAAGGGATGAATAATCCCTAAATATAAAGATCTCTCACTTATTTAAA is greater than or equal to 0.4
Result: no (0)

Query: # check: cleaved RNA product abundance of ACAGACGAAGGAGCCGCTAAAAAGTTATTAAGGGATGAATAATCCCTCAATATAAATATCTCTCACTTATTTAAA is greater than or equal to 0.4
Result: yes (1)

Query: # check: cleaved RNA product abundance of ACAGACGAAGGAGCCGCAAAGAAGTTATTTAGGGATGAATAATCCTTCAATATAAATATCTCTCACTTATTTAAA is greater than or equal to 0.4
Result: yes (1)

Query: # check: cleaved RNA product abundance of ACAGACGAAGGAGCCGCAAAGAAGTTATTAAGGGATGAATACTACCTCAATATAAATATCTCTCACTTATTTAAA is greater than or equal to 0.4
Result: no (0)

----------
- System: Bacillus subtilis
- Protocol notes: cleaved RNA product abundance (RNA/gDNA barcode ratio) relative to median wild-type variant (ratio to wild type); higher = more accumulation of the downstream cleavage product
- Experimental setup: experiment (reporter, strain, medium): exp 4a: truncated aprE reporter, strain BJT201 with 2% xylose (RNase J1 expressed); cleavage site: cggR-gapA (positions -7 to +36 mutated)
Please note: condition met applies when cleaved RNA product abundance is 0.3 or greater, and condition not met applies otherwise.

These solved cases illustrate the format of a correct answer.
{"columns": ["Seq", "Target system", "Label value"],
 "data": [
  ["ACAGACGAAGGAGCCGCAAAAAAGTTATTAACGGATTAATAATCCCTCAATATAAATATCTCTCACTTATTTAAA", "Bacillus subtilis", "condition not met"],
  ["ACAGACGAAGGAGCCGCAAAGAAGTTATTAAGTGATGAATAATCCTTCAATATAAATATCTCTCACTTATTTAAA", "Bacillus subtilis", "condition not met"],
  ["ACAGACGAAGGAGCCGCAAAGAACTTATTAAGGGATTAATAATCCCTCAATATAAATATCTCTCACTTATTTAAA", "Bacillus subtilis", "condition met"],
  ["ACAGACGAAGGAGCCGCAAAGAAGTTAATAAGGGATGAAGAATCCCTCAATATAAATATCTCTCACTTATTTAAA", "Bacillus subtilis", "condition not met"],
  ["ACAGACGAAGGAGCCGCAAAGGAGTTATTAAGGGATAAATAATCCCTCAATATAAATATCTCTCACTTATTTAAA", "Bacillus subtilis", "condition met"]
]}

Attention now shifts to the item below.
Query: # check: cleaved RNA product abundance of ACAGACGAAGGAGCCGCAAAGAAGTTATTAAGGGATGAATAATACGTCAATATAAATATCTCTCACTTATTTAAA is greater than or equal to 0.3
Result: condition not met

----------
- Test system: Bacillus subtilis
- Protocol notes: cleaved RNA product abundance (RNA/gDNA barcode ratio) relative to median wild-type variant (ratio to wild type); higher = more accumulation of the downstream cleavage product
- Experimental setup: experiment (reporter, strain, medium): exp 4a: truncated aprE reporter, strain BJT201 with 2% xylose (RNase J1 expressed); cleavage site: cggR-gapA (positions -7 to +36 mutated)
For each record, write down the corresponding cleaved RNA product abundance.
One number for each entry.

Please review the entries below; each comes with its answer.
{"columns": ["Seq", "cleaved RNA product abundance"],
 "data": [
  ["ACAGACGAAGGAGCCGCAAAGAAGCTATTAAGGGAGGAATAATCCCTCAATATAAATATCTCTCACTTATTTAAA", 0.24],
  ["ACAGACGAAGGAGCCGCAAAGAAGTTATTAAGGAATGAATAATCCCTCAAGATAAATATCTCTCACTTATTTAAA", 0.0834]
]}

Below: the item to evaluate.
Query: For ACAGACGAAGGAGCCGCAAAGAACTTATTAAGGGATGAAAAATCCCTCAATATAAATATCTCTCACTTATTTAAA , what is its reported cleaved RNA product abundance?
Result: 0.521
